# Test system: OVCAR-5 ovarian
# assay-info: NCI-60 one-dose screen, 48 h
# condition-context: 10 µM unless noted
The panel holds about 83,000 compounds, 20% with a hit somewhere; the sample as a whole holds those more often. Activity calls are given as the source filed them. Rule for the calls: active = growth percent below 10; inactive = the rest.
Classes used: active, inactive

INSERT INTO measurements (molecule, group) VALUES
  ('Cc1ccc2nc3ccccc3c(NCc3ccccc3)c2c1', 'inactive'),
  ('CC1O[C@@H](OC2[C@H](OC(=O)/C=C/c3ccc(O)c(O)c3)C(COC3O[C@H](C)C(O)C(O)[C@@H]3O)O[C@@H](OCCc3ccc(O)c(O)c3)[C@H]2O)[C@@H](O)C(O)[C@H]1O (stereo not given in full)', 'inactive'),
  ('O=C(Nc1cccc(C(F)(F)F)c1)Nc1cccc(C(F)(F)F)c1', 'inactive'),
  ('O=C(c1ccc(Nc2nccc(NCCCCNc3ccnc4cc(Cl)ccc34)n2)cc1)N1CCCCC1', 'inactive'),
  ('NC(N)=Nc1nc2ccccc2n2c1nc1ccccc12', 'inactive'),
  ('O=c1c2c3c(sc2nc(N/N=C/c2ccc(Br)cc2)n1Cc1ccccc1)CCCC3', 'inactive'),
  ('O=C(COc1ccc(/C=C2\Oc3ccccc3C2=O)cc1)Nc1nc2ccccc2s1', 'inactive'),
  ('COc1cc(N=Nc2cc(Cc3ccc(N(C)C)cc3)c(N)cc2N(C)C)c2ncccc2c1', 'inactive'),
  ('CCC(CO)Nc1nc2ccc(Cl)cc2c2ccccc12 (stereo not given)', 'inactive'),
  ('N#Cc1c(N)nc(NCCO)nc1-c1ccc(F)cc1', 'inactive'),
  ('O=C(NCCc1ccc(O)c(O)c1)C12CC3CC(CC(C3)C1)C2', 'inactive'),
  ('CC/C=C\C[C@H](O)C/C=C1/C(=O)C=C[C@@H]1C/C=C\CCCCO', 'inactive'),
  ('Cc1ccc(/C=C/c2c(C(=O)/C=C/c3ccc(Cl)cc3)c(C)nc3ccccc23)cc1', 'active'),
  ('CC(=O)O[C@]1(C(C)=O)CCC2C3C[C@H](C)C4=CC(=O)CC[C@]4(C)C3CC[C@@]21C (stereo not given in full)', 'inactive'),
  ('N#Cc1nc(C#N)c(Sc2ccccc2)c(Sc2ccccc2)c1Sc1ccccc1', 'active'),
  ('Cn1c(=O)c2c(nc(Cl)n2CCl)n(C)c1=O', 'inactive'),
  ('CC(C)=C[C@@H]1c2c(c3ccccc3n(C)c2=O)O[C@H]2c3c(c4ccccc4n(C)c3=O)OC(C)(C)[C@@H]12', 'inactive'),
  ('N#Cc1c2c(nn(-c3ccccc3)c1=O)C(O)=C([N+](=O)[O-])C(c1ccccc1)C2 (stereo not given)', 'inactive'),
  ('Cc1c(Cl)cc(-n2c(=O)c3ccccc3c3ccccc3c2=O)cc1Cl', 'inactive'),
  ('COCN1CCC2N(COC)CCC3N(COC)CCC1N23 (stereo not given)', 'inactive');

Data credit: PubChem BioAssay (NCI)
